target: Hb (Homo sapiens, UniProt P68871+P69905, E7V); construct: Using homozygous sickle (SS) blood from patients; endogenous in cells; host or cells: red blood cells of homozygous SS patient blood (hematocrit 20%); clarified lysates measured after incubation; assay: Hb adduct formation (Hb modification) by cation-exchange HPLC, SS blood lysates; assay type: binding; conditions: 1 mM; SS RBCs
Value Kind: % Hb-modification (adduct formation) (%)

- Compound: "N#Cc1ccc(C=O)o1"
  Recorded Result: 10.4

P: O=Cc1ccc(C(F)F)o1
Q: O=Cc1ccc(N2CCC(O)CC2)o1
Task: Out of P and Q , name the one with the higher % Hb-modification (adduct formation). Choose, then provide that item's label.
Output: P

A: O=Cc1ccc(C2CCCCO2)o1 (centres unmarked)
B: O=Cc1ccc(-c2ccn[nH]2)o1
Task: Out of A and B , name the one with the higher % Hb-modification (adduct formation). Choose, then provide that item's label.
Output: A
(A: 27.6%, B: 18.0%)

* * *

target: Hb (Homo sapiens, UniProt P68871+P69905, E7V); construct: Using homozygous sickle (SS) blood from patients; endogenous in cells; host or cells: red blood cells of homozygous SS patient blood (hematocrit 20%); clarified lysates measured after incubation; test: Hb adduct formation (Hb modification) by cation-exchange HPLC, SS blood lysates; assay type: binding; conditions: 0.5 mM; SS RBCs
Value Kind: % Hb-modification (adduct formation) (%)

Example results:
- Compound: "N#Cc1ccc(C=O)o1"
  Study Target: "Hb (Homo sapiens, UniProt P68871+P69905, E7V)"
  Unit Descriptor: "%"
  Recorded Result: 4.2
- Compound: "O=Cc1ccc(-c2ccn[nH]2)o1"
  Study Target: "Hb (Homo sapiens, UniProt P68871+P69905, E7V)"
  Unit Descriptor: "%"
  Recorded Result: 4.8
- Compound: "O=Cc1ccc(N2CCC(O)CC2)o1"
  Study Target: "Hb (Homo sapiens, UniProt P68871+P69905, E7V)"
  Unit Descriptor: "%"
  Recorded Result: 0.0

a: O=Cc1ccc(C(F)F)o1
b: O=Cc1ccc(C2CCCCO2)o1 (centres unmarked)
Task: Out of a and b , name the one with the higher % Hb-modification (adduct formation). Choose, then provide that item's label.
Output: b

* * *

target: Hb (Homo sapiens, UniProt P68871+P69905, E7V); construct: Using homozygous sickle (SS) blood from patients; endogenous in cells; host or cells: red blood cells of homozygous SS patient blood (hematocrit 20%); clarified lysates measured after incubation; assay: Oxygen equilibrium study (P50 shift) of lysates from SS blood, Hemox Analyzer; assay type: cell-based; settings: 1 mM; SS RBCs
Value Kind: % Hb-O2 affinity (P50 shift vs DMSO control) (%)

Example results:
- Compound: "N#Cc1ccc(C=O)o1"
  Recorded Result: 14.6
- Compound: "O=Cc1ccc(C2CCCCO2)o1 (centres unmarked)"
  Recorded Result: 34.5
- Compound: "O=Cc1ccc(N2CCC(O)CC2)o1"
  Recorded Result: 5.3

I: O=Cc1ccc(C(F)F)o1
II: O=Cc1ccc(-c2ccn[nH]2)o1
Task: Pick one: I or II . Which one has the lower reported % Hb-O2 affinity (P50 shift vs DMSO control)? Choose, then provide that item's label.
Output: I
(I: 8.8%, II: 20.0%)

* * *

target: CYP2D6 (Homo sapiens, UniProt P10635)
Value Kind: IC50

Task: Please tell me: IC50 of O=Cc1ccc(CO)o1 [Compound 5-HMF, 5-hydroxymethylfurfural, reference compound] , system CYP2D6 (Homo sapiens, UniProt P10635)?
Output: > 100 µM
